Source of measurements: ChEMBL document CHEMBL1275577

Test system: Bacteroides thetaiotaomicron
assay-protocol: Antimicrobial activity against Bacteroides thetaiotaomicron by Wadsworth agar dilution method
Assay type: functional
measured-endpoint: MIC90 (µg/mL)

1) CN[C@H](CC(C)C)C(=O)N[C@H]1C(=O)N[C@@H](CC(N)=O)C(=O)N[C@H]2C(=O)N[C@H]3C(=O)N[C@H](C(=O)N[C@H](C(=O)O)c4cc(O)cc(O)c4-c4cc3ccc4O)[C@H](O)c3ccc(c(Cl)c3)Oc3cc2cc(c3O[C@@H]2O[C@H](CO)[C@@H](O)[C@H](O)[C@H]2O[C@H]2C[C@](C)(N)[C@H](O)[C@H](C)O2)Oc2ccc(cc2Cl)[C@H]1O [VANCOMYCIN] | 256
2) CC(=O)Oc1ccccc1C(=O)Nc1ncc([N+](=O)[O-])s1 [NITAZOXANIDE] | 8
